- test_summary: PK parameters in mice after iv and po administration (LC-MS/MS of plasma)
- Format: in vivo
- stated_conditions: mouse, plasma, po, read-out: MRTINF_obs
measure_name: MRT inf (h)

[[record]]
molecule = "CC(=O)N[C@H]1CC[C@H](NC(=O)Nc2cc(-c3cnn4c3CC(C)(C)C4)c(Cl)cn2)CC1"
measure_name = "MRT inf"
readout_value = 1.57

[[record]]
molecule = "CC(=O)N[C@@H]1CCC[C@H](C(=O)Nc2cc(-c3cnn4c3CC(C)(C)C4)c(Cl)cn2)C1 [AZD4573, reference compound]"
measure_name = "MRT inf"
readout_value = 0.42

[[record]]
molecule = "COCCN[C@H]1CC[C@H](NC(=O)Nc2cc(-c3cnn4c3CC(C)(C)C4)c(Cl)cn2)CC1"
measure_name = "MRT inf"
readout_value = 1.7


====

- experimental_target: CDK6/cyclin D1 (Homo sapiens, UniProt Q00534)
- Sequence (Q00534 whole entry, species assumed): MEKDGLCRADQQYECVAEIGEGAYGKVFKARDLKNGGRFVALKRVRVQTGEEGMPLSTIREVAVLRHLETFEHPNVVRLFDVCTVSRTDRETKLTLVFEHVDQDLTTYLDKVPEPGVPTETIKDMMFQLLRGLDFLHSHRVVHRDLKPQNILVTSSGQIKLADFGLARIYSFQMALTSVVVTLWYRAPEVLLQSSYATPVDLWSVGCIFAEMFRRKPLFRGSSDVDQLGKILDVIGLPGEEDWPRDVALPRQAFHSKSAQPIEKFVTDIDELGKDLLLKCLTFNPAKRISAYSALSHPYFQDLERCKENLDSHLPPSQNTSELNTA
- Sequence (P24385 whole entry partner, species assumed): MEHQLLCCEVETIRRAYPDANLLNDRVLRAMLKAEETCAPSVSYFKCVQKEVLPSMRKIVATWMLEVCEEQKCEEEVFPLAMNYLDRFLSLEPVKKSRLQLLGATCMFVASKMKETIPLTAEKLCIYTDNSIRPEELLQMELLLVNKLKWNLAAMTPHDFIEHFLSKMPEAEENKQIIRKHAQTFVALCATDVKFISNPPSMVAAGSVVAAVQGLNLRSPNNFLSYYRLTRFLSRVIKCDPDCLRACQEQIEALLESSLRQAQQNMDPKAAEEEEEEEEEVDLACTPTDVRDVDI
- test_summary: CDK6 enzyme activity inhibition
- Format: biochemical
- stated_conditions: compound 10 nM; read-out: CDK6/Cyc D1 inhibition rate % 10 nM
measure_name: inhibition at 0.01 µM (%)

[[record]]
compound = "COCCN[C@H]1CC[C@H](NC(=O)Nc2cc(-c3cnn4c3CC(C)(C)C4)c(Cl)cn2)CC1 [Example 46]"
experimental_target = "CDK6/cyclin D1 (Homo sapiens, UniProt Q00534)"
measure_name = "inhibition at 0.01 µM"
measurement_units = "%"
readout_value = 6.2

[[record]]
compound = "CC(=O)N[C@H]1CC[C@@H](NC(=O)Nc2cc(-c3cnn4c3CC(C)(C)C4)c(Cl)cn2)CC1 [Example 67]"
experimental_target = "CDK6/cyclin D1 (Homo sapiens, UniProt Q00534)"
measure_name = "inhibition at 0.01 µM"
measurement_units = "%"
readout_value = 4

[[record]]
compound = "COc1cc(F)ccc1-c1ccnc(NC(=O)N[C@H]2CC[C@H](N)CC2)c1 [Example 2]"
experimental_target = "CDK6/cyclin D1 (Homo sapiens, UniProt Q00534)"
measure_name = "inhibition at 0.01 µM"
measurement_units = "%"
readout_value = 2.6

[[record]]
compound = "COCCN[C@H]1CC[C@H](NC(=O)Nc2cc(-c3ccc(F)cc3OC)ccn2)CC1 [Example 3]"
experimental_target = "CDK6/cyclin D1 (Homo sapiens, UniProt Q00534)"
measure_name = "inhibition at 0.01 µM"
measurement_units = "%"
readout_value = 9.9

[[record]]
compound = "CC(=O)N[C@H]1CC[C@H](NC(=O)Nc2cc(-c3cnn4c3CC(C)(C)C4)c(Cl)cn2)CC1 [Example 47]"
experimental_target = "CDK6/cyclin D1 (Homo sapiens, UniProt Q00534)"
measure_name = "inhibition at 0.01 µM"
measurement_units = "%"
readout_value = 4.6


====

- experimental_target: CDK1/cyclin B (Homo sapiens)
- Sequence (P06493 whole entry, species assumed): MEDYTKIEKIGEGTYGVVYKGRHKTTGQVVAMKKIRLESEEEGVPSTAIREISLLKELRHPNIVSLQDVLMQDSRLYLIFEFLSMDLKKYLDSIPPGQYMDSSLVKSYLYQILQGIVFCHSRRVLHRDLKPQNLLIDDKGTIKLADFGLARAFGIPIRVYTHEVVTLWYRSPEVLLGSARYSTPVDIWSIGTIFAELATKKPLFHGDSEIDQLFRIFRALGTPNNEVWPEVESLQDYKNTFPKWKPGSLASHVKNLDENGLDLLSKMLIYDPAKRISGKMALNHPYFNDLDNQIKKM
- Sequence (P14635 whole entry partner, species assumed): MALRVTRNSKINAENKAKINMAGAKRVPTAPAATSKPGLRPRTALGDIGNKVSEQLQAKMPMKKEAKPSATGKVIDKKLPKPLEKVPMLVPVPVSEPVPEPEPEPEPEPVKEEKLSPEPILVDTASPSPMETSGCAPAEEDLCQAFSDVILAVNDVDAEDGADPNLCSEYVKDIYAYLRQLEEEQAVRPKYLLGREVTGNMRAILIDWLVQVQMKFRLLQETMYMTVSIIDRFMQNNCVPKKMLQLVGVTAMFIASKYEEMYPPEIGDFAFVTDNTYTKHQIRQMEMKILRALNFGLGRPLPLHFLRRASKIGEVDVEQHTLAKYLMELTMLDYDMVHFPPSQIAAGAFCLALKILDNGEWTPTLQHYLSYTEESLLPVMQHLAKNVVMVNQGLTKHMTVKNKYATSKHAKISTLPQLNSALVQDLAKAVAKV
- test_summary: CDK1 enzyme activity inhibition
- Assay type: biochemical
- stated_conditions: compound 10 nM; read-out: CDK1/Cyc B inhibition rate % 10 nM
measure_name: inhibition at 0.01 µM (%)

[[record]]
entry_smiles = "CC(=O)N[C@H]1CC[C@@H](NC(=O)Nc2cc(-c3cnn4c3CC(C)(C)C4)c(Cl)cn2)CC1"
readout_value = 4.7

[[record]]
entry_smiles = "COc1cc(F)ccc1-c1ccnc(NC(=O)N[C@H]2CC[C@H](N)CC2)c1"
readout_value = 1.3

[[record]]
entry_smiles = "COCCN[C@H]1CC[C@H](NC(=O)Nc2cc(-c3ccc(F)cc3OC)ccn2)CC1"
readout_value = -1.9

[[record]]
entry_smiles = "CC(=O)N[C@H]1CC[C@H](NC(=O)Nc2cc(-c3cnn4c3CC(C)(C)C4)c(Cl)cn2)CC1"
readout_value = 5

[[record]]
entry_smiles = "COCCN[C@H]1CC[C@H](NC(=O)Nc2cc(-c3cnn4c3CC(C)(C)C4)c(Cl)cn2)CC1"
readout_value = -5.1


====

- test_summary: PK parameters in mice after iv and po administration (LC-MS/MS of plasma)
- Format: in vivo
- stated_conditions: mouse, plasma, iv, 3 mg/kg
measure_name: half-life

[[record]]
compound = "COCCN[C@H]1CC[C@H](NC(=O)Nc2cc(-c3cnn4c3CC(C)(C)C4)c(Cl)cn2)CC1"
readout_value = "125 min"

[[record]]
compound = "CC(=O)N[C@@H]1CCC[C@H](C(=O)Nc2cc(-c3cnn4c3CC(C)(C)C4)c(Cl)cn2)C1 [AZD4573, reference compound]"
readout_value = "6.6 min"

[[record]]
compound = "CC(=O)N[C@H]1CC[C@H](NC(=O)Nc2cc(-c3cnn4c3CC(C)(C)C4)c(Cl)cn2)CC1"
readout_value = "230 min"


====

- experimental_target: T1, Recombinant human CDK9/cyclin T1 (Homo sapiens, UniProt P50750)
- T1 construct: purchased Carna bioscience 04-110
- T1 sequence (P50750 whole entry): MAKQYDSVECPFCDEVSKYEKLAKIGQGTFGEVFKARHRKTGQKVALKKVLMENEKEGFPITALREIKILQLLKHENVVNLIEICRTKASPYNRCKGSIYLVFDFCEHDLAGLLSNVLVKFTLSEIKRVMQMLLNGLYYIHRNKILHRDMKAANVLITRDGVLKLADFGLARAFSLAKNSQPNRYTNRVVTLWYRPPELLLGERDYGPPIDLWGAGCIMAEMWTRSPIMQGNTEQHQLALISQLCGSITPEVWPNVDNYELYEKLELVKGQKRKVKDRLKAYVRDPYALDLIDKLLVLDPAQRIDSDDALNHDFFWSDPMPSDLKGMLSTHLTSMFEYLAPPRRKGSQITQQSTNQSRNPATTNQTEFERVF
- T1 sequence (O60563 whole entry partner): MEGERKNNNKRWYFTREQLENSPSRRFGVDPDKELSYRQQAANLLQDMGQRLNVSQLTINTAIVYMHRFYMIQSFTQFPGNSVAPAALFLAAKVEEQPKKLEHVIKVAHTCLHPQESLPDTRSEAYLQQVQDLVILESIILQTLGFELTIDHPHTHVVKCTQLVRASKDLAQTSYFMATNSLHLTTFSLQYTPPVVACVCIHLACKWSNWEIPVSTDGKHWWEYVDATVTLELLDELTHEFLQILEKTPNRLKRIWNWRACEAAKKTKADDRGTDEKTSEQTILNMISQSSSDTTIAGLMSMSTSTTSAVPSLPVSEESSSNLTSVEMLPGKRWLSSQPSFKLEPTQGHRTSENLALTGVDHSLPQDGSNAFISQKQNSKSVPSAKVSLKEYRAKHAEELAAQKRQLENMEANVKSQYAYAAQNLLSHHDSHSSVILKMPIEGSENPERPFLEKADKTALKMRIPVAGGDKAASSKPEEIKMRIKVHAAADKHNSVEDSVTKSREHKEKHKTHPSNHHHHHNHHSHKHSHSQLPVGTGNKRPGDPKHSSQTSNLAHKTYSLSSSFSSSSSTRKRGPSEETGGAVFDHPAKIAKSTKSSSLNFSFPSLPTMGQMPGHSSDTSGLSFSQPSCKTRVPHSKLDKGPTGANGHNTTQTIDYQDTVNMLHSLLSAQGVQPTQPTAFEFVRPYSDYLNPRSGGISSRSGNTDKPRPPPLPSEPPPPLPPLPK
- test_summary: CDK9 enzyme inhibitory activity (ADP-Glo kinase assay)
- Assay type: biochemical
- stated_conditions: CDK9 enzyme activity; compound 100 nM; average of two independent repeats; read-out: Inhibition rate at different concentrations (%) 100 nM
measure_name: inhibition at 0.1 µM (%)

[[record]]
molecule = "CN(C)CC(=O)NC1CCC(NC(=O)Nc2cc(-c3cnn4c3CC(C)(C)C4)c(Cl)cn2)CC1 (centres unmarked)"
readout_value = 74

[[record]]
molecule = "CC1(C)Cc2c(-c3cc(NC(=O)NCCCN)ncc3Cl)cnn2C1"
readout_value = 69

[[record]]
molecule = "COCC(C)NC1CCC(NC(=O)Nc2cc(-c3cnn4c3CC(C)(C)C4)c(Cl)cn2)CC1 (centres unmarked)"
readout_value = 93.1

[[record]]
molecule = "CC1(C)Cc2c(-c3cc(NC(=O)NC4CCNCC4)ncc3Cl)cnn2C1"
readout_value = 89

[[record]]
molecule = "CC(=O)NC1CCC(NC(=O)Nc2cc(-c3cnn4c3CC(C)(C)C4)c(F)cn2)CC1 (centres unmarked)"
readout_value = 92.8

[[record]]
molecule = "Cn1cc(-c2ccnc(NC(=O)NC3CCC(N)CC3)c2)cn1 (centres unmarked)"
readout_value = 72.3

[[record]]
molecule = "[2H]C([2H])([2H])C(=O)NC1CCC(NC(=O)Nc2cc(-c3cnn4c3CC(C)(C)C4)c(Cl)cn2)CC1 (centres unmarked)"
readout_value = 97.4

[[record]]
molecule = "COc1cc(F)ccc1-c1cc(NC(=O)NC2CCC(N)CC2)ncc1Cl (centres unmarked)"
readout_value = 86

[[record]]
molecule = "CC1(C)Cc2c(-c3cc(NC(=O)N[C@@H]4CC[C@@H](N)C4)ncc3Cl)cnn2C1"
readout_value = 86

[[record]]
molecule = "Cc1c(-c2cc(NC(=O)NC3CCC(N)CC3)ncc2Cl)cnn1C (centres unmarked)"
readout_value = 75

[[record]]
molecule = "CC1(C)Cc2c(-c3cc(NC(=O)NC4CCC(NC(=O)C5COC5)CC4)ncc3Cl)cnn2C1 (centres unmarked)"
readout_value = 95.1

[[record]]
molecule = "CC1(C)Cc2c(-c3cc(NC(=O)NCCCNC(=O)OC(C)(C)C)ncc3Cl)cnn2C1"
readout_value = 64

[[record]]
molecule = "COc1cc(F)ccc1-c1cc(NC(=O)NC2CCC(NCCN(C)C)CC2)ncc1Cl (centres unmarked)"
readout_value = 78.4

[[record]]
molecule = "COCCN[C@H]1CC[C@H](NC(=O)Nc2cc(-c3cnn4c3CC(C)(C)C4)c(Cl)cn2)CC1"
readout_value = 94

[[record]]
molecule = "COc1cc(-c2ccnc(NC(=O)NC3CCC(N)CC3)c2)c(F)cc1F (centres unmarked)"
readout_value = 81.1

[[record]]
molecule = "CC(=O)NC1CCC(NC(=O)Nc2cc(-c3cnn4c3CC(C)(C)C4)ccn2)CC1 (centres unmarked)"
readout_value = 95.7

[[record]]
molecule = "CC(=O)NC1CCC(NC(=O)Nc2cc(-c3cnn4c3CCC4)c(Cl)cn2)CC1 (centres unmarked)"
readout_value = 66.3


====

- test_summary: PK parameters in mice after iv and po administration (LC-MS/MS of plasma)
- Format: in vivo
- stated_conditions: mouse, plasma, iv, 3 mg/kg, i.v., read-out: MRTINF_obs
Catalogue of MRT inf readings, one per entry.
measure_name: MRT inf (min)

[[record]]
compound = "COCCN[C@H]1CC[C@H](NC(=O)Nc2cc(-c3cnn4c3CC(C)(C)C4)c(Cl)cn2)CC1"
readout_value = 50.4

[[record]]
compound = "CC(=O)N[C@H]1CC[C@H](NC(=O)Nc2cc(-c3cnn4c3CC(C)(C)C4)c(Cl)cn2)CC1"
readout_value = 140

[[record]]
compound = "CC(=O)N[C@@H]1CCC[C@H](C(=O)Nc2cc(-c3cnn4c3CC(C)(C)C4)c(Cl)cn2)C1 [AZD4573, reference compound]"
readout_value = 6.6


====

- test_summary: PK parameters in mice after iv and po administration (LC-MS/MS of plasma)
- Format: in vivo
- stated_conditions: mouse, plasma, po
- Description: The relevant pharmacokinetic parameters were calculated to examine the oral bioavailability and pharmacokinetic properties of the compound in mice.
measure_name: Cmax (ng/mL)

[[record]]
molecule = "CC(=O)N[C@@H]1CCC[C@H](C(=O)Nc2cc(-c3cnn4c3CC(C)(C)C4)c(Cl)cn2)C1 [AZD4573, reference compound]"
measure_name = "Cmax"
readout_value = 219

[[record]]
molecule = "CC(=O)N[C@H]1CC[C@H](NC(=O)Nc2cc(-c3cnn4c3CC(C)(C)C4)c(Cl)cn2)CC1 [Example 47]"
measure_name = "Cmax"
readout_value = 58.2

[[record]]
molecule = "COCCN[C@H]1CC[C@H](NC(=O)Nc2cc(-c3cnn4c3CC(C)(C)C4)c(Cl)cn2)CC1 [Example 46]"
measure_name = "Cmax"
readout_value = 382

